# pIC50 values compiled below
molecular target: ferroportin (Homo sapiens, UniProt Q9NP59); test: T47D cell-based ferroportin internalization assay in presence of mouse serum albumin (MSA), AF647 detection peptide, flow cytometry; settings: second Table 6D, T47D/MSA data; with mouse serum albumin
Sequence (Q9NP59 whole entry): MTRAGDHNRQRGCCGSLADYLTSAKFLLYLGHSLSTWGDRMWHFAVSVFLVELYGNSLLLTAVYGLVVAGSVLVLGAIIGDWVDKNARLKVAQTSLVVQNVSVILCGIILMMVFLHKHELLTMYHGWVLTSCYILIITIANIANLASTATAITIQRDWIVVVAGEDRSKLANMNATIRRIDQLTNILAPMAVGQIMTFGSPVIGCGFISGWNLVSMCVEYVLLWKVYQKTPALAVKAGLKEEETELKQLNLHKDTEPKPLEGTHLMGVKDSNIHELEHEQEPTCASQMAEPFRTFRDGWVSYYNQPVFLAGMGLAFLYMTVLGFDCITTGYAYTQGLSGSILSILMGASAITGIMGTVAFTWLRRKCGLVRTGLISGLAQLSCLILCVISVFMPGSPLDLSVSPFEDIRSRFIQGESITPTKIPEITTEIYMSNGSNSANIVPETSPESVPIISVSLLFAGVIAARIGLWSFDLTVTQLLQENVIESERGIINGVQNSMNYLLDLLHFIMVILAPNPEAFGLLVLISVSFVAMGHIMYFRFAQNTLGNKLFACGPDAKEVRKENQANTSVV
Positions of bridges follow the written chain, without caps; N, C: chain ends. Non-standard residues stand in square brackets, D forms with d. Residues, ends and D or L forms follow the SMILES beside them. Groups on a side chain read outwards from the residue. *: point of attachment. C18 diacid = O=C(O)CCCCCCCCCCCCCCCCC(=O)*; Dip = N[C@H](C(=O)O)C(c1ccccc1)c1ccccc1; Palmitoyl = CCCCCCCCCCCCCCCC(=O)*; β3hF = N[C@H](CC(=O)O)Cc1ccccc1; Isovaleryl = CC(C)CC(=O)*; AEEA = NCCOCCOCC(=O)O; Ahx = NCCCCCC(=O)O
The scale used: pIC50 is minus the common logarithm of the concentration in molar units.

CCCCCCCCCCCCCCCC(=O)NCCCCCC(=O)NCCCC[C@H](NC(=O)C[C@H](Cc1ccccc1)NC(=O)[C@H]1CCCCNC(=O)CC[C@H](NC(=O)CC(C)C)C(=O)N[C@@H]([C@@H](C)O)C(=O)N[C@@H](Cc2c[nH]cn2)C(=O)N[C@@H](C(c2ccccc2)c2ccccc2)C(=O)N2CCC[C@H]2C(=O)N[C@@H](C)C(=O)N[C@@H]([C@@H](C)CC)C(=O)N1)C(=O)N[C@@H](CCCNC(=N)N)C(N)=O [compound 56] (Isovaleryl-ETH[Dip]PAI[dK][β3hF]K([Ahx-Palmitoyl])R-NH2; lactam 1-8) ... 8.05
CCCCCCCCCCCCCCCC(=O)NCCCCCC(=O)NCCCC[C@H](NC(=O)[C@@H]1CCCCNC(=O)CC[C@H](NC(=O)CC(C)C)C(=O)N[C@@H]([C@@H](C)O)C(=O)N[C@@H](Cc2c[nH]cn2)C(=O)N[C@@H](C(c2ccccc2)c2ccccc2)C(=O)N2CCC[C@H]2C(=O)N[C@@H](C)C(=O)N[C@@H]([C@@H](C)CC)C(=O)N1)C(N)=O [compound 314] (Isovaleryl-ETH[Dip]PAIKK([Ahx-Palmitoyl])-NH2; lactam 1-8) ... 7.97
CC[C@H](C)[C@H](NC(=O)[C@H](C)NC(=O)[C@@H]1CCCN1C(=O)[C@@H](NC(=O)[C@H](Cc1c[nH]cn1)NC(=O)[C@@H](NC(=O)[C@H](CCC(=O)O)NC(=O)CC(C)C)[C@@H](C)O)C(c1ccccc1)c1ccccc1)C(=O)N[C@@H](CCCCNC(=O)COCCOCCNC(=O)COCCOCCNC(=O)CCCCCNC(=O)CCCCCCCCCCCCCCCCC(=O)O)C(=O)N[C@H](CC(N)=O)Cc1ccccc1 [compound 76] (Isovaleryl-ETH[Dip]PAIK([AEEA-AEEA-Ahx-C18 diacid])[β3hF]-NH2) ... 6.84

Note pIC50 for the compound shown: CCCCCCCCCCCCCCCC(=O)NCCCCCC(=O)NCCCC[C@H](NC(=O)[C@@H]1CCC(=O)NCCCC[C@H](NC(=O)CC(C)C)C(=O)N[C@@H]([C@@H](C)O)C(=O)N[C@@H](Cc2c[nH]cn2)C(=O)N[C@@H](C(c2ccccc2)c2ccccc2)C(=O)N2CCC[C@H]2C(=O)N[C@@H](C)C(=O)N[C@@H]([C@@H](C)CC)C(=O)N1)C(N)=O [compound 309] (Isovaleryl-KTH[Dip]PAIEK([Ahx-Palmitoyl])-NH2; lactam 1-8) 7.51

Numbers sourced from patent US20240066131A1.
